Listing of entries alongside the reported MIC.
- Tested on: Mycobacterium tuberculosis
- protocol: Antimycobacterial activity against Mycobacterium tuberculosis H37Rv after 16 to 24 hrs by microplate alamar blue assay
- Assay type: functional
Respond numerically; units are µM and should not be typed.

Below: 3 compounds and their reported MIC.
smilesEntry	unitOfMeasure	MIC
Cn1c(CO[C@@H]2COc3nc([N+](=O)[O-])cn3C2)cnc1-c1ccc(C#N)cc1	µM	2.8
COc1ccc(-c2cc(CO[C@@H]3COc4nc([N+](=O)[O-])cn4C3)on2)cn1	µM	2
O=[N+]([O-])c1cn2c(n1)OC[C@@H](OCc1ccc(-c3ccc(C(F)(F)F)nc3)s1)C2	µM	0.05

input: Which value of MIC has been reported for O=[N+]([O-])c1cn2c(n1)OC[C@@H](OCc1nnn(-c3ccc(OC(F)(F)F)cc3)n1)C2 in the records?
output: 0.035

====

- Test system: Mycobacterium tuberculosis
- protocol: Antimycobacterial activity against Mycobacterium tuberculosis H37Rv expressing pFCA-luxAB after 10 days by luminescence-based low-oxygen recovery assay
- Type: functional
- reportedConditions: 240 h
Overview of recorded MIC for various compounds
State the answer as a number, implicitly in µM.

Record excerpt, results attached:
smilesEntry	MIC (µM)
O=[N+]([O-])c1cn2c(n1)OC[C@@H](OCc1cc(-c3ccc(F)cc3)no1)C2	1.9
Cn1nc(-c2ccc(F)cc2)cc1CO[C@@H]1COc2nc([N+](=O)[O-])cn2C1	4

Consider the record given below.
input: # value lookup — system Mycobacterium tuberculosis, readout MIC, item O=[N+]([O-])c1cn2c(n1)OC[C@@H](OCc1csc(-c3ccc(OC(F)(F)F)cc3)n1)C2
output: 1.5
